Test: inhibition of 3D7 malaria parasite growth – strain 3D7 (AID 2306);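 note: 0% = DMSO wells and 100% = chloroquine plus artemisinin control wells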
Conditions: P. falciparum 3D7 erythrocytic growth, LDH absorbance, 72 h; at 2 µM; hits give high values
Active and inactive are the calls of the source. The rule behind the calls is not given here.
Provide the reported growth inhibition of each item.

[[record]]
compound = "CCCC(=O)Nc1ccc(OCCCN(Cc2ccccc2OC(F)(F)F)c2ccc(C#N)c(C(F)(F)F)c2)cc1"
value_reported = "94% (active)"

[[record]]
compound = "CCCN(CC1CC1)c1ncc(-c2cccc(CNCCC3CCCN3C)c2)cn1 (centres undefined)"
value_reported = "98% (active)"

[[record]]
compound = "CCOc1cc(C(=O)NCCCN2CCCCC2C)ccc1-c1nc2ccc(Cl)cc2[nH]1 (centres undefined)"
value_reported = "89% (active)"

[[record]]
compound = "Cc1cc(NC2CCCC2)nc(Nc2ccccc2C)n1"
value_reported = "88% (active)"

[[record]]
compound = "Cn1c(Cc2ccccc2)nnc1Sc1ccc(C#N)c([N+](=O)[O-])c1"
value_reported = "93% (active)"


Answer for every listed entry: what is its growth inhibition? The entries follow.
1. CC(Sc1nc(-c2ccccc2)c(-c2ccccc2)o1)C(=O)NC1CC1 (centres undefined)
2. CN(C)CCC=C1c2ccccc2Sc2c(O)cc(Cl)cc21
3. COc1ccc2nccc([C@@H](O)CN3CCC(NCc4cc5cc(OC(F)(F)F)ccc5[nH]4)CC3)c2c1
4. N#Cc1ccc(N(CCOC(=O)c2ccc(Br)s2)Cc2ccccc2C(F)(F)F)cc1C(F)(F)F
5. COc1cc2nc(N3CCC(CNC(=O)c4ccc(-c5ccc(C(=O)N(C)C)cc5OCCO)cc4)CC3)nc(N)c2cc1OC
6. CC1CN(S(=O)(=O)c2ccc(NC(=O)c3cc(-c4ccccc4O)n[nH]3)cc2)CC(C)O1 (centres undefined)
7. O=C(CCCCCNC(=O)c1ccc(O)c(-c2ccc(Cl)c(Cl)c2)c1)NCCN1CCOCC1
8. Cc1cccc(Cl)c1S(=O)(=O)N1CCCCC(c2ccc(C(F)(F)F)cc2)=N1

Result block:
94% (active)
100% (active)
100% (active)
82% (active)
100% (active)
97% (active)
95% (active)
100% (active)

Answer for every listed entry: what is its growth inhibition? The entries follow.
1. Oc1ccc(CCNCCCCCCNCCc2ccc(Cl)cc2)c(Cl)c1O
2. Cc1csc(NC(=O)c2cn(-c3ccccc3)nc2-c2cccs2)n1
3. COc1ccc(C(=O)Nc2cc(Br)c3c(c2)CNCC3)cc1C(F)(F)F
4. O=C(NCCCCN1CCC(c2ccc3c(c2O)CCCC3)CC1)c1ccc(-c2ccc(Cl)cc2)cc1
5. CC(=O)Nc1nc(C(=O)Nc2ccc(-c3cccc(-c4nc5c(C)cccc5[nH]4)c3)cc2)cs1
6. CC(C)C[C@H](NC(=O)c1ccc(OCCN2CCOCC2)cc1)C(=O)N[C@H](/C=N/N1CCN(C)C1=O)CCc1ccccc1

Result block:
1. 100% (active)
2. 95% (active)
3. 90% (active)
4. 98% (active)
5. 101% (active)
6. 90% (active)

---

Test: inhibition of 3D7 malaria parasite growth – strain 3D7 (AID 2306);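 note: 0% = DMSO wells and 100% = chloroquine plus artemisinin control wells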
Details: P. falciparum 3D7 erythrocytic growth, LDH absorbance, 72 h; at 2 µM; hits give high values
Metric Name: growth inhibition (%)
Answers are plain numbers, in %.

Illustrative cases are given below, each with its answer.
[[record]]
molecule = "COc1ccc(N2CCN(CCCCNCc3ccc(NC(=O)c4cc(Cl)cc(Cl)c4)cc3)CC2)c(OC)c1"
metric_name = "growth inhibition"
endpoint_unit = "%"
value_reported = 100

[[record]]
molecule = "CC(C)CCN=C(N)Nc1ccc(OCCCCCOc2ccc(NC(N)=NCCC(C)C)cc2)cc1"
metric_name = "growth inhibition"
endpoint_unit = "%"
value_reported = 85

[[record]]
molecule = "CCCCNc1cc(NCCCC)c2c(n1)[nH]c1ccccc12"
metric_name = "growth inhibition"
endpoint_unit = "%"
value_reported = 100

[[record]]
molecule = "COc1cc(F)c2ncc(F)c(CCN3C[C@H](CNCc4ccc5c(n4)NC(=O)CS5)[C@H](O)C3)c2c1"
metric_name = "growth inhibition"
endpoint_unit = "%"
value_reported = 91

[[record]]
molecule = "CN(C)CCCOc1cccc(NC(=O)Nc2ccc(Cl)c(Cl)c2)c1"
metric_name = "growth inhibition"
endpoint_unit = "%"
value_reported = 90


Answer for every listed entry: what is its growth inhibition? The entries follow.
1. CN(Cc1cccc(O)c1)C1CCN(c2cc(NC(=O)c3ccc(F)cc3)ccn2)C1 (stereo not given)
2. CC1CCN(C(=O)CSc2nc(-c3ccc(C(C)C)cc3)no2)CC1
3. CSc1cccc(Nc2nc3ccc(S(=O)(=O)NC(C)C(C)C)cc3n2[C@H](C)C(C)(C)C)c1 (stereo not given in full)

Result block:
91
98
97

Answer for every listed entry: what is its growth inhibition? The entries follow.
1. O=C(Nc1ccc(Cl)c(Cl)c1)N1CCC(CNCc2cccc([N+](=O)[O-])c2)CC1
2. Cc1cc(C)cc(N2C(N)=NC(N)=NC2(C)C)c1

Result block:
1. 98
2. 93

---

Target: L-lactate dehydrogenase (Plasmodium falciparum (isolate CDC / Honduras))
Assay: PfLDH activity inhibition – cell lysate, 3D7 strain, counter-screen for P. falciparum growth inhibition project (AID 2304);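 note: 0% = vehicle and 100% = reference inhibitor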
Conditions: P. falciparum 3D7 crude extract, LDH APAD/NBT absorbance; at 2 µM; hits give high values
Active and inactive are the calls of the source. No rule for the calls is given here.
Metric Name: inhibition

[[record]]
compound = "O=C(CCn1c2ccccc2c2ccccc21)NN=Cc1ccco1"
target_or_system = "L-lactate dehydrogenase (Plasmodium falciparum (isolate CDC / Honduras))"
metric_name = "inhibition"
value_reported = "-3% (inactive)"


Answer for every listed entry: what is its inhibition? The entries follow.
1. COc1cc(C)ccc1S(=O)(=O)N1CCCCC(c2ccc(C(F)(F)F)cc2)=N1
2. Cc1[nH]c(C)c(-c2ccc(-c3ccccc3)nc2)c(=O)c1Br
3. O=[N+]([O-])c1ccc(C(O)P(=O)(c2ccccc2)c2ccccc2)cc1 (stereo not drawn)
4. Fc1ccc(-c2csc3ncnc(Cl)c23)cc1
5. CC(=O)Nc1ncc(C(=O)Nc2cccc(-c3ccc(-c4nc5ccc(C(F)(F)F)cc5[nH]4)cc3)c2)s1
6. COc1ccc(C(=O)CCC(=O)N(CCSC(C)(C)C)Cc2ccc(-c3ccc(CNCCc4ccc(S(C)(=O)=O)cc4)cn3)cc2)cc1F
7. Cc1cccc(-c2ccc(NC(=O)Nc3ccc4nccc(N5CCN(C)CC5)c4c3)cc2C)n1
8. COc1ccc2cc(-c3nc(-c4c(Cl)cccc4Cl)[nH]c3-c3ccnc(NCCC4CCCN4C)c3)ccc2c1 (stereo not drawn)

Result block:
1. -1% (inactive)
2. -1% (inactive)
3. 0% (inactive)
4. -1% (inactive)
5. -4% (inactive)
6. -3% (inactive)
7. -3% (inactive)
8. 2% (inactive)

---

Assay: inhibition of 3D7 malaria parasite growth – strain 3D7 (AID 2306);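 note: 0% = DMSO wells and 100% = chloroquine plus artemisinin control wells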
Conditions: P. falciparum 3D7 erythrocytic growth, LDH absorbance, 72 h; at 2 µM; hits give high values
Metric Name: growth inhibition (%)
Answers are plain numbers, in %.

Illustrative cases are given below, each with its answer.
[[record]]
molecule = "O=C(Nc1ccc(S(=O)(=O)N2CCCCCC2)cc1)c1cc(-c2ccccc2O)n[nH]1"
value_reported = 100

[[record]]
molecule = "CCCC(C)Nc1nc(C)cc(N[C@@H](CC(C)C)C(=O)Nc2ccc(OC)cc2)n1 (stereo not given in full)"
value_reported = 98

[[record]]
molecule = "Cc1cc(NCCc2ccccc2)nc(/N=C(\\N)Nc2ccccc2Cl)n1"
value_reported = 100

[[record]]
molecule = "OCC1CCN(Cc2ccc(-c3ccc(-c4nc5ccc(C(F)(F)F)cc5[nH]4)cc3)cc2)CC1"
value_reported = 100

[[record]]
molecule = "COc1ccc(C=NNc2ccnc3ccccc23)c2ccccc12"
value_reported = 102

[[record]]
molecule = "O=C(NCCNc1nc(NCCNC(=O)Nc2ccccc2)c2ccc(=O)n(-c3c(F)cccc3F)c2n1)Nc1ccccc1"
value_reported = 94

[[record]]
molecule = "Nc1nc(N)c2c(Cl)c(N3CCOCC3)ccc2n1"
value_reported = 96

[[record]]
molecule = "COCCNc1nc(N2CCC(CNC(=O)c3ccc(-c4ccc(C(=O)N(C)C)cc4C)cc3)CC2)nc2cc(OC)c(OC)cc12"
value_reported = 98


Answer for every listed entry: what is its growth inhibition? The entries follow.
1. NC(N)=NN=CC(=O)Nc1ccc(Cl)c(Cl)c1
2. COc1cc(Nc2ccnc3ccc(C(C)(C)C)cc23)cc(OC)c1OC

Result block:
97
100

---

Experiment: HepG2 cytotoxicity, primary screen, cytotoxicity control for P. falciparum antimalarial project, cell-based, ATP luminescence (AID 2303);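 note: 0% = DMSO wells and 100% = digitonin-killed cells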
Settings: HepG2 viability, 24-48 h, at 10 µM
Activity calls are given as the source filed them.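 Rule for the calls: active = inhibition above 50%; inactive = the rest.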
Reply using exactly one outcome from y = active, n = inactive

[[record]]
compound = "Cc1cc(NN=Cc2ccccc2[N+](=O)[O-])c2cc(F)ccc2n1"
group_label = "n"


Query block: State the result this test recorded for CCCCNCc1ccc(-c2nc(CN(CCCn3ccnc3)C(=O)N[C@@H]3C[C@H]3c3ccccc3)cs2)cc1 .
Result block: n

Query block: State the result this test recorded for CCCN1CCN(CC(O)CNC(=O)Nc2ccc(Br)cc2)CC1 (stereo not given) .
Result block: n

Query block: State the result this test recorded for Cc1ccc(C)c(CC(=O)N2CCC(n3c(C)nc4ccc(F)cc43)CC2)c1 .
Result block: n

Query block: State the result this test recorded for CCCCNC(=O)c1[nH]c2c(NC(=O)COc3ccccc3)cccc2c1-c1cccc(NC(=O)C(N)CO)c1 (stereo not given) .
Result block: n

Query block: State the result this test recorded for Nc1c2c(nc3ccc(Oc4ccc(Br)cc4Br)cc13)CCCC2 .
Result block: n

Query block: State the result this test recorded for COc1ccc2nccc([C@@H](O)CN3CCC(NC(=O)c4ccc(-c5ccc(C#N)cc5)cc4)CC3)c2c1 .
Result block: n

Query block: State the result this test recorded for COc1ccc2nc(-c3cccc(C)n3)nc(Nc3ccncc3)c2c1 .
Result block: n

Query block: State the result this test recorded for CC(C)(C(=O)Nc1ccc(C2CCC(NCC3CC3)CC2)c(Cl)c1)c1ccc(C(F)(F)F)cc1 (stereo not given) .
Result block: y

Query block: State the result this test recorded for COc1cc2nc(Nc3ccc4c(cnn4Cc4ccccc4)c3)nc(Nc3ccc4c(cnn4Cc4ccccc4)c3)c2cc1OC .
Result block: n

Query block: State the result this test recorded for CCCN(CCC)CC(O)COc1ccccc1C(=O)Nc1ccccc1 (stereo not given) .
Result block: n

Query block: State the result this test recorded for COc1cc(OC)c(NC(=O)COc2ccc(C)cc2)cc1Cl .
Result block: n

Query block: State the result this test recorded for COc1ccc(C(=O)Nc2ccc(Nc3nc(C)cc(N(C)C)n3)cc2)c(OC)c1 .
Result block: n

Query block: State the result this test recorded for Cc1cccc2[nH]c(-c3cccc(-c4cccc(NC(=O)c5cncn5C)c4)c3)nc12 .
Result block: n

Query block: State the result this test recorded for Nc1ncc(Cc2ccc3c(ccc4ccccc43)c2)c(N)n1 .
Result block: n

Query block: State the result this test recorded for O=C1OC2(CN1CC1CCN(Cc3ccc(O)cc3Cl)C1)c1ccccc1-c1ccccc12 (stereo not given) .
Result block: n

Query block: State the result this test recorded for O=C(Cc1ccc(-n2cnnn2)cc1)N(Cc1cncn1Cc1cccc(C(F)(F)F)c1)CC1CC1 .
Result block: n

Query block: State the result this test recorded for O=C(Nc1ccc([N+](=O)[O-])cc1O)Nc1ccccc1Oc1ccccc1 .
Result block: n

Query block: State the result this test recorded for CCn1c(-c2cc(C)on2)nc2cnc(Oc3ccc(C(=O)N4CC(=O)N(C)C4C(C)(C)C)cc3)cc21 (stereo not given) .
Result block: n

Query block: State the result this test recorded for Cc1nc2ccc3ccc(CNc4ccc(C#N)cc4)cc3c2c(=O)[nH]1 .
Result block: y
